Test system: CCRF-CEM
protocolDetails: Cytotoxic concentration against uninfected CEM cells
Format: functional
measurementContext: Homo sapiens
assayMetric: CC50

compound	CC50
O=C(O)C(=O)/C=C(\O)c1cccc(OCc2cccc(COc3cccc(/C(O)=C/C(=O)C(=O)O)c3)c2)c1	> 200 µM
O=C(O)C(=O)/C=C(\O)c1cccc(OCc2ccccc2COc2cccc(/C(O)=C/C(=O)C(=O)O)c2)c1	> 200 µM
O=C(/C=C(\O)c1cccc(Cc2ccccc2F)c1)C(=O)NCCCCCNC(=O)C(=O)/C=C(\O)c1cccc(Cc2ccccc2F)c1	12 µM

If you can, please state the reported CC50 value of O=C(/C=C(\O)c1cccc(Cc2ccccc2F)c1)C(=O)N1CCN(C(=O)C(=O)/C=C(\O)c2cccc(Cc3ccccc3F)c2)CC1 . 11 µM

// query CC50 value for entry O=C(O)C(=O)/C=C(\O)c1cccc(OCc2ccc(COc3cccc(/C(O)=C/C(=O)C(=O)O)c3)cc2)c1 > 200 µM

Recorded CC50 of O=C(/C=C(\O)c1cccc(Cc2ccccc2F)c1)C(=O)NCCCCCCNC(=O)C(=O)/C=C(\O)c1cccc(Cc2ccccc2F)c1 , please. 124 µM

CC50 for O=C(/C=C(\O)c1cccc(Cc2ccccc2F)c1)C(=O)NCCCNC(=O)C(=O)/C=C(\O)c1cccc(Cc2ccccc2F)c1 ? 9 µM

Given the entry O=C(O)C(=O)/C=C(\O)c1cccc(C(c2cccc(/C(O)=C/C(=O)C(=O)O)c2)c2ccccc2F)c1 (stereo not given) , report its measured CC50. 81 µM

Which CC50 value is on record for O=C(O)C(=O)/C=C(\O)c1cccc(Cc2ccccc2F)c1 ? 62 µM

Please give the measured CC50 for this compound: O=C(/C=C(\O)c1cccc(Cc2ccccc2F)c1)C(=O)NCCNC(=O)C(=O)/C=C(\O)c1cccc(Cc2ccccc2F)c1 5 µM

---

Consider the following pIC50 values measured on UniProt Q7ZJM1.
A value of pIC50 is the negative decimal logarithm of a concentration given in moles per litre.

Previously resolved entries follow.
O=C(/C=C(\O)c1cccc(Cc2ccccc2F)c1)C(=O)NCCCNC(=O)C(=O)/C=C(\O)c1cccc(Cc2ccccc2F)c1 6.70
O=C(/C=C(\O)c1cccc(Cc2ccccc2F)c1)C(=O)NCCNC(=O)C(=O)/C=C(\O)c1cccc(Cc2ccccc2F)c1 6.70
O=C(/C=C(\O)c1cccc(Cc2ccccc2F)c1)C(=O)NCCCCCCNC(=O)C(=O)/C=C(\O)c1cccc(Cc2ccccc2F)c1 5.57

If you can, please state the reported pIC50 value of O=C(O)C(=O)/C=C(\O)c1cccc(OCc2ccc(COc3cccc(/C(O)=C/C(=O)C(=O)O)c3)cc2)c1 . 5.72

Reported pIC50 for O=C(O)C(=O)/C=C(\O)c1cccc(Cc2ccccc2F)c1 : what is it? 6.40

Any idea what pIC50 was measured for O=C(/C=C(\O)c1cccc(Cc2ccccc2F)c1)C(=O)NCCCCCNC(=O)C(=O)/C=C(\O)c1cccc(Cc2ccccc2F)c1 ? 6.15

Field request: pIC50 | item: O=C(/C=C(\O)c1cccc(Cc2ccccc2F)c1)C(=O)N1CCN(C(=O)C(=O)/C=C(\O)c2cccc(Cc3ccccc3F)c2)CC1 6.52

---

testTarget: Human immunodeficiency virus type 1 integrase (Human immunodeficiency virus 1)
Sequence (Q7ZJM1 whole entry): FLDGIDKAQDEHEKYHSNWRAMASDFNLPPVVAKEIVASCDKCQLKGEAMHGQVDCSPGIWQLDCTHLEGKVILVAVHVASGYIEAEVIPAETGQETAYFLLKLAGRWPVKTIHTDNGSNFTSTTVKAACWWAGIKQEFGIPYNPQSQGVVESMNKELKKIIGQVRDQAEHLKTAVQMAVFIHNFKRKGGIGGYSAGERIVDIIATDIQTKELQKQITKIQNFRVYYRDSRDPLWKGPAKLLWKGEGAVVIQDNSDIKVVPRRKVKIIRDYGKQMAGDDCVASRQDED
assayMetric: IC50 (µM)
Express the result in µM but write the number alone.

Use these answered entries as a reference point.
O=C(O)C(=O)/C=C(\O)c1cccc(Cc2ccccc2F)c1 2.5
O=C(/C=C(\O)c1cccc(Cc2ccccc2F)c1)C(=O)NCCCNC(=O)C(=O)/C=C(\O)c1cccc(Cc2ccccc2F)c1 5.3
O=C(O)C(=O)/C=C(\O)c1cccc(OCc2ccc(COc3cccc(/C(O)=C/C(=O)C(=O)O)c3)cc2)c1 1.7
O=C(/C=C(\O)c1cccc(Cc2ccccc2F)c1)C(=O)NCCCCCCNC(=O)C(=O)/C=C(\O)c1cccc(Cc2ccccc2F)c1 32
O=C(O)C(=O)/C=C(\O)c1cccc(OCc2cccc(COc3cccc(/C(O)=C/C(=O)C(=O)O)c3)c2)c1 7.3

API: value(readout= IC50, system= Human immunodeficiency virus type 1 integrase (Human immunodeficiency virus 1), query= O=C(/C=C(\O)c1cccc(Cc2ccccc2F)c1)C(=O)NCCCCCNC(=O)C(=O)/C=C(\O)c1cccc(Cc2ccccc2F)c1 ) 4.8

GET /values?readout=IC50&system=Human immunodeficiency virus type 1 integrase (Human immunodeficiency virus 1)&item= O=C(/C=C(\O)c1cccc(Cc2ccccc2F)c1)C(=O)NCCNC(=O)C(=O)/C=C(\O)c1cccc(Cc2ccccc2F)c1 5.8

These data points were gathered from ChEMBL document CHEMBL1148310.
